- tested_on: Beta-secretase 2 (Homo sapiens)
- Sequence (Q9Y5Z0 whole entry): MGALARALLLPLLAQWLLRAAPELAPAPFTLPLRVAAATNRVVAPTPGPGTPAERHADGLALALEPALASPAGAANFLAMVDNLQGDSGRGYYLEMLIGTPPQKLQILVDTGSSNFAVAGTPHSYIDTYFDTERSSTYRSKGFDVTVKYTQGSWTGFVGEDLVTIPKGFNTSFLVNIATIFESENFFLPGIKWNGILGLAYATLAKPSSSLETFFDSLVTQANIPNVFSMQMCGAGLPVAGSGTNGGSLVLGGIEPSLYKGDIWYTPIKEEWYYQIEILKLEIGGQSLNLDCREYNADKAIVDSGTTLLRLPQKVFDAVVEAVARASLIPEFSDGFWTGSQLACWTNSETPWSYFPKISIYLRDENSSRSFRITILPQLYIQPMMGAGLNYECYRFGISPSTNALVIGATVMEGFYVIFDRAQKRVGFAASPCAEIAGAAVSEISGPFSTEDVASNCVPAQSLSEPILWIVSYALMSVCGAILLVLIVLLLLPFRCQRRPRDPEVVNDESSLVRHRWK
- procedure_summary: DMSO is present at 5% final concentration in the assay. Following laser excitation of sample wells at 320 nm, the fluorescence signal at 620 nm is collected for 400 ms following a 50 us delay on a RUBYstar HTRF plate reader (BMG Labtechnologies). Raw RFU data is normalized to maximum (1.0 nM BACE/DMSO) and minimum (no enzyme/DMSO) RFU values. […] The Ki values are calculated from the IC50 using the Cheng-Prusoff equation.
pKi: −log10 of the molar value.

{"chemical_structure": "CN1CCC2(CC1)C(=N)N[C@](C)(c1cc(NC(=O)C(F)F)ccc1F)CS2(=O)=O", "tested_on": "Beta-secretase 2 (Homo sapiens)", "pKi": 6.68}

* * *

- tested_on: Beta-secretase 1 (Homo sapiens, UniProt P56817)
- Sequence (P56817 whole entry): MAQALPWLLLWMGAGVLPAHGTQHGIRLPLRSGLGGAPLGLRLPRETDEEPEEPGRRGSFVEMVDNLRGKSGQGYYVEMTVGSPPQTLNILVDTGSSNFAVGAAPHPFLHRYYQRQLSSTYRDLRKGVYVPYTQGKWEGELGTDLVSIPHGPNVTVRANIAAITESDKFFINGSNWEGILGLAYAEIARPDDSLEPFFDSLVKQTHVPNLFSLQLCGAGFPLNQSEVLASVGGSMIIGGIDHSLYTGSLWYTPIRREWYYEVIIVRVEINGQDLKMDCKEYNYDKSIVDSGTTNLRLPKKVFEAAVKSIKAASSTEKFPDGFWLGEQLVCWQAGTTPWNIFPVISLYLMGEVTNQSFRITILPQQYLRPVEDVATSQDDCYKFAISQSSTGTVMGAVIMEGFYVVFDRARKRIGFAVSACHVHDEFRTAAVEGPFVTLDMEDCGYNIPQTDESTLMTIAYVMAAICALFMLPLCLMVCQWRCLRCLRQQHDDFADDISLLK
- procedure_summary: This assay monitors the increase of 620 nm fluorescence that resulted from BACE1 cleavage of an APPswedish APPswe mutant peptide FRET substrate (QSY7-[…]-Europium-amide). This substrate contains an N-terminal QSY7 moiety that serves as a quencher of the C-terminal Europium fluorophore (620 nm Em). […] Reactions are initiated by addition of 10 ul of 600 nM QSY7-APPswe-Eu substrate (200 nM final) to give a final reaction volume of 30 ul in a 384 well Nunc HTRF plate. The reactions are incubated at 30° C. for 1.5 hours. The 620 nm fluorescence is then read on a Rubystar HTRF plate reader (BMG Labtechnologies) using a 50 millisecond delay followed by a 400 millisecond acquisition time window. Inhibitor IC50 values are derived from non-linear regression analysis of concentration response curves.
pKi: −log10 of the molar value.
quantity_measured: pKi

{"chemical_structure": "CN1CCC2(CC1)C(=N)N[C@](C)(c1cc(NC(=O)C(F)F)ccc1F)CS2(=O)=O", "tested_on": "Beta-secretase 1 (Homo sapiens, UniProt P56817)", "quantity_measured": "pKi", "reading": 5.77}
